System: C. freundii CDC6
Experiment: In vitro antibacterial activity (MIC)
Assay type: cell-based
Details: Citrobacter freundii, CDC6, C. freundii CDC6; read-out: MIC
Protocol: Drug dilutions are prepared in Mueller-Hinton broth ranging from 128 to 0.008 μg/ml. The diluted agents are dispensed in 100 μl amounts into the wells of a 96-well tray and used immediately or frozen at -10° to -70° C. until needed. Using an automated inoculator, 1.5 μl of a 10^-2 dilution of an overnight culture is added to each well of the tray. The tops of the trays are then sealed using transparent tape and incubated overnight at 37° C. The trays are examined with the aid of a viewer. […]
Where a name gives a salt, the structure may show the parent alone.
readout.kind: MIC (µg/mL)
Your answer is read as µg/mL, so omit the unit and give the number.

Fill in MIC for record CN(C)C=Nc1nccn1CCCC1CCN(C=N[C@@H]2C(=O)N3[C@@H]2SC(C)(C)[C@@H]3C(=O)O)CC1 [S, hydrate]
0.5

Assign MIC to the following record: CC1(C)S[C@@H]2[C@H](N=CN3CCC(CCCn4ccnc4[N+](=O)[O-])CC3)C(=O)N2[C@H]1C(=O)O [K, hydrate]
0.5

Please report the measured MIC for CC1(C)S[C@@H]2[C@H](N=CN3CCC(C4=NCCN4)CC3)C(=O)N2[C@H]1C(=O)O [L, hydrochloride]
0.5

====

Please provide measured MIC for the entries that follow.
test system: P. aeruginosa 8710; assay: In vitro antibacterial activity (MIC); assay type: cell-based; conditions: Pseudomonas aeruginosa; P. aeruginosa 8710; read-out: MIC
Structures can show the parent of a compound that is named as a salt.

Tell me measured MIC for CC1(C)S[C@@H]2[C@H](N=CN3CCC(Cn4ccnc4CN)CC3)C(=O)N2[C@H]1C(=O)O [J, hydrochloride] please.
> 128 µg/mL

Please look at this compound and report its MIC: Cc1nc(C)n(CCCC2CCN(C=N[C@@H]3C(=O)N4[C@@H]3SC(C)(C)[C@@H]4C(=O)O)CC2)c1C [E, hydrate hydrochloride]
> 128 µg/mL

Please report the measured MIC for CC1(C)S[C@@H]2[C@H](N=CN3CCC(c4ncc[nH]4)CC3)C(=O)N2[C@H]1C(=O)O [O, hydrochloride trihydrate]
> 128 µg/mL

State, in one line, measured MIC of Cc1nccn1CCCC1CCN(C=N[C@@H]2C(=O)N3[C@@H]2SC(C)(C)[C@@H]3C(=O)O)CC1 [F, hydrate]
> 128 µg/mL
